Ref: patent US20170022281A1

solution mAb binding, % of PRLR binding values, listed per item
Molecular target: T1, human PRLR (Biacore antigen) (human, UniProt P16471 25-234, limits assumed)
T1 construct: The construct injected over captured antibody is not described (a soluble form is likely); also called huPRLR
T1 sequence: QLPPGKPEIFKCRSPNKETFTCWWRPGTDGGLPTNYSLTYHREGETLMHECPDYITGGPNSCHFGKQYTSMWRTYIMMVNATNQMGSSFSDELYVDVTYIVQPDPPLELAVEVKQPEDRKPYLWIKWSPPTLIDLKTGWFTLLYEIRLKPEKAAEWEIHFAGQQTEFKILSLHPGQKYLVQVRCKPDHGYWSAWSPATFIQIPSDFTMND
Assay: SPR simultaneous binding; PRLR held by surface mAb Ab39
Just the number in %, nothing appended.

>  <binder>
Ab21 (antibody, human IgG1, kappa, V domains shown, humanized from Ab6; G1; also called Ab1 HC.1a and Ab1 LC.2a) VH: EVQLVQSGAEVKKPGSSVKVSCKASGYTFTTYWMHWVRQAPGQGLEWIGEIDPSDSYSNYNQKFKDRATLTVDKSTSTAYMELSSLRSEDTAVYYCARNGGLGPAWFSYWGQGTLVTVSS VL: EIVMTQSPATLSVSPGERATLSCKASQYVGTAVAWYQQKPGQSPRLLIYSASNRYTGVPARFSDSGSGTEFTLTISSLQSEDFAVYFCQQYSSYPWTFGGGTKVEIKR

>  <solution mAb binding, % of PRLR binding, %>
-2

$$$$

Task item: So what does the record say about solution mAb binding, % of PRLR binding for chAb8 (antibody, human IgG1, kappa, V domains shown, chimeric, murine variable and human G1/kappa constant regions) VH: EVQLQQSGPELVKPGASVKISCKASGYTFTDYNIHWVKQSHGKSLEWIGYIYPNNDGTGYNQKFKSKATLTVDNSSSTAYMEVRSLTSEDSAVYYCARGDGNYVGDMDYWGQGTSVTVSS VL: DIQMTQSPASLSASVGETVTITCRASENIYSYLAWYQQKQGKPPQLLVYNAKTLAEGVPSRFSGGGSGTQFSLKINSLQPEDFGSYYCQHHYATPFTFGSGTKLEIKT ?
Reply: -2
